- ASSAY_INFO: recombinant barcode read abundance after kanamycin selection (control-corrected) (log10(CPM+1)); higher = more efficient recombination; sequences stand for … in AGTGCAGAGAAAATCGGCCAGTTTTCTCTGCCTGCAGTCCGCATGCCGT…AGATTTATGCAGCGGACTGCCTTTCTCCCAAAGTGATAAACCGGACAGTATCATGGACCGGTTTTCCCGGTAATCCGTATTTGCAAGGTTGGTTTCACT; site = the 11-nt target;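 further: IS621 recombinase and bridge RNA in Escherichia coli cells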
OUTCOME_MEASURE: recombinant barcode read abundance (log10)
Just the number, please.

Worked set:
AAGAATACTTGGGTTCTAACCTGTTGCCT (site AAGAATACTAG) : 1.16
AAAAGCCCTTGGGTTCTAACCTGTTGCCT (site AAAAGCCCTAG) : 0.77
AACCACTCTTGGGTTCTAACCTGTTGCCT (site GACCACTCTAG) : 0.266
GGTTAGCCTTGGGTTCTAACCTGTTGCCT (site GGTTAGCCTAG) : 0.579
CAGGTCCCTTGGGTTCTAACCTGTTGCCG (site CAGGTCCCTCG) : 2.74

recombinant barcode read abundance (log10) reading for CAGAGAGCTTGGGTTCTAACCTGTTGCCT (site CTGAGAGCTAG) : 0.132

Reported recombinant barcode read abundance (log10) for TTACAATCTTGGGTTCTAACCTGTTGCCT (site CTACAATCTAG) was 0.337

Reported recombinant barcode read abundance (log10) for GAAACAGCTTGGGTTCTAACCTGTTGCCT (site GACACAGCTAG) was 0.0141

According to the records, this sequence GTTGGCGCTTGGGTTCTAACCTGTTGCCT (site GTCGGCGCTAG) displays recombinant barcode read abundance (log10) of 0.125

The value of recombinant barcode read abundance (log10) measured for the sequence CATGCTACTTGGGTTCTAACCTGTTGCGT (site GATTCTACTAC) turned out to be 0.0988

Kindly note the recorded recombinant barcode read abundance (log10) for AAGTGAGCTTGGGTTCTAACCTGTTGCCA (site AAGTGAGCTTG) , which is 0.408

// sample GTCTATACTTGGGTTCTAACCTGTTGCCT (site GTGTATACTAG) , its recombinant barcode read abundance (log10) was 0.0645

Entry ACGACTGCTTGGGTTCTAACCTGTTGCCT (site ACGACTGCTAG) — recorded recombinant barcode read abundance (log10) = 0.738
